As shown below, each of these molecules has a reported cell viability value.
- Test system: Caco-2
- Test name: cell viability relative to DMSO; higher = less toxic
- Experimental setup: 72 h; 100 nM
Just the number please, in %, no unit attached.

INSERT INTO assay_data (molecule, unit_name, numeric_result) VALUES
  ('Cn1cccc1/C=C1\C(=O)NC(=O)c2ccccc21', '%', 108),
  ('C/C(=N\Nc1nnc2c(n1)[nH]c1c(C)cccc12)c1ccccn1', '%', 98.1),
  ('CCCCCC(=O)O[C@]1(C(C)=O)CC[C@H]2[C@@H]3CCC4=CC(=O)CC[C@]4(C)[C@H]3CC[C@@]21C [17-hydroxyprogesterone-caproate]', '%', 107),
  ('CCN(CC)CCN[C@@H](C(=O)OCCC(C)C)c1ccccc1 [camylofine-chlorhydrate]', '%', 85.5),
  ('C[C@@H]1CC[C@H]2C(C)(C)[C@H]3C[C@@]12CC[C@@]3(C)O', '%', 100);

Prompt: Tell me reported cell viability for BrC1C(Br)C(Br)C(Br)C(Br)C1Br (stereo not drawn) , tested with Caco-2.
Completion: 97.3

Prompt: Tell me reported cell viability for Cc1ccc(C(=O)Nc2cccc(C(F)(F)F)c2)cc1Nc1nc(-c2cccnc2)nc2c1cnn2C , tested with Caco-2.
Completion: 101

Prompt: Tell me reported cell viability for CC(C)[C@H](CO)Nc1nc(Nc2cccc(Cl)c2)c2ncn(C(C)C)c2n1 , tested with Caco-2.
Completion: 93.4

---

- Tested on: Vero E6
- Test name: cell viability relative to DMSO; higher = less toxic
- Experimental setup: 72 h; 1 nM
As shown below, each of these molecules has a reported cell viability value.
Just the number please, in %, no unit attached.

// worked examples, cell viability included
INSERT INTO results (molecule, measurement_target, numeric_result) VALUES
  ('Cc1cc(CC(C)CC(C)(C)C)n(O)c(=O)c1 (configuration not stated) [piroctone-olamine]', 'Vero E6', 102),
  ('CCCCCCNC(=O)n1cc(F)c(=O)[nH]c1=O [Carmofur]', 'Vero E6', 104),
  ('CCCCNc1cc(C(=O)O)cc(S(N)(=O)=O)c1Oc1ccccc1 [bumetanide]', 'Vero E6', 117),
  ('CCCCCCCNS(=O)(=O)c1cccc2c(Cl)cccc12 [SC-10]', 'Vero E6', 117),
  ('O=C1Nc2ccccc2C12OCC1(CO2)COC2(OC1)C(=O)Nc1ccccc12 (configuration not stated) [JW-67]', 'Vero E6', 88.4),
  ('Cc1n[nH]c2ccc(-c3cncc(OC[C@@H](N)Cc4ccccc4)c3)cc12', 'Vero E6', 101);

--- query ---
Prompt: Quick one: cell viability for C#C[C@]1(O)CC[C@H]2[C@@H]3CCC4=C(CCC(=O)C4)[C@H]3CC[C@@]21C [noretynodrel] ?
Completion: 95.2

---

As shown below, each of these compounds has a reported cell viability value.
- Test system: HepG2
- Test name: cell viability relative to DMSO; higher = less toxic
- Experimental setup: 72 h; 1000 nM
Just the number please, in %, no unit attached.

Prompt: Quick one: cell viability for CC(C)(C)N1CCC(c2ccccc2)(c2ccccc2)CC1 [budipine] ?
Completion: 102

Prompt: Quick one: cell viability for CCC1(CC)C(=O)NC(=O)N(C)C1=O [metharbital] ?
Completion: 102

Prompt: Quick one: cell viability for COc1ccc2c(c1)c(CC(=O)O)c(C)n2C(=O)c1ccc(Cl)cc1 [indomethacin] ?
Completion: 94.7

Prompt: Quick one: cell viability for CN(C(=O)/C=C/c1ccoc1)[C@@H]1CC[C@@]2(O)[C@H]3Cc4ccc(O)c5c4[C@@]2(CCN3CC2CC2)[C@H]1O5 [nalfurafine] ?
Completion: 97.7

Prompt: Quick one: cell viability for Nc1nccs1 [aminothiazole] ?
Completion: 97.2

Prompt: Quick one: cell viability for CC(C)[C@@H]1CC[C@@H](C)C[C@H]1O [levomenthol] ?
Completion: 104

Prompt: Quick one: cell viability for CCn1c(-c2nonc2N)nc2cnc(Oc3cccc(NC(=O)c4ccc(OCCN5CCOCC5)cc4)c3)cc21 ?
Completion: 80.4

Prompt: Quick one: cell viability for CCn1c(-c2nonc2N)nc2cncc(CNC3CCNCC3)c21 ?
Completion: 80.6

Prompt: Quick one: cell viability for COc1cc(N)c(Cl)cc1C(=O)NC1CCN(Cc2ccccc2)CC1 [clebopride] ?
Completion: 104

Prompt: Quick one: cell viability for O=C(N[C@@H]1Cc2ccccc2N(C[C@@H](O)CO)C1=O)c1cc2cc(Cl)sc2[nH]1 [GPi-688] ?
Completion: 104

Prompt: Quick one: cell viability for Cc1cc(CC(C)CC(C)(C)C)n(O)c(=O)c1 (centres undefined) [piroctone-olamine] ?
Completion: 110

Prompt: Quick one: cell viability for Cc1ccc([N+](=O)[O-])cc1S(=O)(=O)N(C)C ?
Completion: 99.1
